- Assay system: cynomolgus monkey EL (cynomolgus monkey)
- Experiment: Biacore; EL captured by anti-C2-tag Ab; bivalent fit
Measurement kind: pKd
Give only the number. pKd is defined as minus log10 of concentration in molar units.

As a guide, the following entries are already answered.
Binder	pKd
h53A11-S3 (antibody, V domains shown) VH: QVQLVQSGAEVKKPGASVKVSCKASGYTFTDYTMHWVRQAPGQRLEWMGGINPYYGGTTYNEKFKDRVTITRDTSASTAYMELSSLRSEDTAVYYCAKGDYYGGSYNYWGQGTTVTVSS VL: EIVMTQSPATLSVSPGERATLSCRASQDISNSLHWYQQKPGQAPRLLIKYASQSISGIPARFSGSGSGTEFTLTISSLQSEDFAVYYCQQSNSWPYTFGQGTKLEIK	8.24
h13B3-S2 (antibody, V domains shown) VH: QVQLVQSGAEVKKPGASVKVSCKASGYTFTEYTMHWVRQAPGQGLEWMGSINPYYGGTSYNEKFKDRVTSTRDTSISTAYMELSRLRSDDTVVYYCARYGNYVGYFDYWGQGTTVTVSS VL: EIVLTQSPGTLSLSPGERATLSCRASSSVHYMYWYQQKPGQAPRLLIYYTSNLAPGIPDRFSGSGSGTDFTLTISRLEPEDFAVYYCQQFTSSPYTFGGGTKVEIK	8.51
h53A11-S1 (antibody, V domains shown) VH: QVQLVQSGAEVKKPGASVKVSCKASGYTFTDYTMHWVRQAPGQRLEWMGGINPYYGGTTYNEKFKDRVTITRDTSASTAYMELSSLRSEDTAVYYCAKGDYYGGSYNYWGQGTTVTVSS VL: EIVMTQSLATLSVSPGERATLSCRASQDISNSLHWYQQKPGQAPRLLIKYASQSISGIPARFSGSGSGTEFTLTISSLQSEDFAVYYCQQSNSWPYTFGQGTKLEIK	8.64
h13B3-S4 (antibody, V domains shown) VH: QVQLVQSGAEVKKPGASVKVSCKASGYTFTEYTMHWVRQAPGQGLEWMGSINPYYGGTSYNEKFKDRVTSTRDTSISTAYMELSRLRSDDTVVYYCARYGNYVGYFDYWGQGTTVTVSS VL: EIVLTQSPATLSLSPGERATLSCRASSSVHYMYWYQQKPGQAPRLLIYYTSNLAPGIPARFSGSGSGTDFTLTISSLEPEDFAVYYCQQFTSSPYTFGGGTKVEIK	8.46

Turning to the following binder.
# input Given the binder h23H8-S3 (antibody, V domains shown) VH: QVQLVQSGAEVKKPGASVKVSCKASGYTFTDNTIHWVRQAPGQGLEWMGHINPYYGGTNNNEKFKDRVTMTRDTSISTAYMELSRLRSDDTAVYYCARKGIYYSSPFDYWGQGTTVTVSS VL: DIQMTQSPSSLSASVGDRVTITCRASQDINNYLNWYQQKPGKAPKLLISYTSKLHSGVPSRFSGSGSGTDFTLTISSLQPEDFATYYCQQGNTLPFTFGQGTKLEIK , write its reported pKd.
# output 9.39

Source of measurements: patent US20200071424A1
